# experimentalSystem: GDP-loaded WT KRAS (Homo sapiens)
# Sequence (P01116 1-188 isoform P01116-2): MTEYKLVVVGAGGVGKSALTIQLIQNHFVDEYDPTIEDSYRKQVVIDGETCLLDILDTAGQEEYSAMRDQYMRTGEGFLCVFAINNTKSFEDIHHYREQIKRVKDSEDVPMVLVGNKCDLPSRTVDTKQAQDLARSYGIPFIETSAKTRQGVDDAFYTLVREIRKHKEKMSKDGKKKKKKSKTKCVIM
# testName: KRAS WT Probe Displacement Assay
# Format: binding
# testSettings: WT KRAS 3 nM, biotinylated probe 1 60 nM; read-out: KRAS WT Probe Displacement Assay IC50
Exercise: state measured pIC50 for each of the compounds provided.
When answering, recall that pIC50 equals minus log10 of the concentration in mol/L, and write that number alone.

Exercise: Which pIC50 value is on record for Nc1nc2c(-c3c(Cl)cc4c(N5CC6CCC(C5)N6)nc(OCC56CCCN5CC(F)C6)nc4c3F)ccc(F)c2s1 (stereo not shown) ?
Key: 8.12

Exercise: Which pIC50 value is on record for `Nc1cc(Cl)c(C(F)(F)F)c(-c2c(Cl)cc3c(N4CC5CCC(C4)N5)nc(OC[C@@]45CCCN4C[C@H](F)C5)nc3c2F)c1` ?
Key: 7.34

Exercise: Which pIC50 value is on record for `Nc1nc2c(-c3c(C(F)(F)F)cc4c(N5CC6CCC(C5)N6)nc(OC[C@@]56CCCN5C[C@H](F)C6)nc4c3F)c(F)cc(F)c2s1` ?
Key: 8.62

Exercise: Which pIC50 value is on record for CN1CCCC1(C)COc1nc(N2CC3CCC(C2)N3)c2cc(Cl)c(-c3ccc(F)c4sc(N)nc34)c(F)c2n1 (stereo not shown) ?
Key: 6.62

Exercise: Which pIC50 value is on record for `C=Cc1cc2c(N3CC4CCC(C3)N4)nc(OC[C@@H]3C[C@@H](F)CN3C)nc2c(F)c1-c1ccc(F)c2sc(N)nc12` ?
Key: 7.14

Exercise: Which pIC50 value is on record for `Nc1nc2c(-c3c(C(F)(F)F)cc4c(N5CC6CCC(C5)N6)nc(OC[C@@]56CCCN5C[C@H](F)C6)nc4c3F)cc(F)c(F)c2s1` ?
Key: 8.25

Exercise: Which pIC50 value is on record for `Cc1c(F)c(N)nc(-c2c(Cl)cc3c(N4CC5CCC(C4)N5)nc(OC[C@@]45CCCN4C[C@H](F)C5)nc3c2F)c1C(F)(F)F` ?
Key: 7.00

Exercise: Which pIC50 value is on record for `Nc1nc2c(-c3c(C(F)(F)F)cc4c(N5CC6CCC(C5)N6)nc(OC[C@@]56CCCN5C[C@H](F)C6)nc4c3F)ccc(F)c2s1` ?
Key: 8.52

Exercise: Which pIC50 value is on record for `Nc1nc2c(-c3c(C(F)(F)F)cc4c(N5CC6CCC(C5)N6)nc(OC[C@@]56CCCN5C[C@H](F)C6)nc4c3F)ccc(Cl)c2s1` ?
Key: 8.42

Exercise: Which pIC50 value is on record for `CN(C)C(=O)CCOc1nc(N2CC3CCC(C2)N3)c2cc(Cl)c(-c3ccc(F)c4sc(N)nc34)c(F)c2n1` ?
Key: 5.85

Exercise: Which pIC50 value is on record for `C=C(C)c1cc2c(N3CC4CCC(C3)N4)nc(OC[C@@]34CCCN3C[C@H](F)C4)nc2c(F)c1-c1ccc(F)c2sc(N)nc12` ?
Key: 7.14

Exercise: Which pIC50 value is on record for `CN(C)CC1(COc2nc(N3CC4CCC(C3)N4)c3cc(Cl)c(-c4ccc(F)c5sc(N)nc45)c(F)c3n2)CCC1` ?
Key: 7.35

Exercise: Which pIC50 value is on record for CN1C[C@H](F)CC1(C)COc1nc(N2CC3CCC(C2)N3)c2cc(Cl)c(-c3ccc(F)c4sc(N)nc34)c(F)c2n1 (stereo partly shown) ?
Key: 6.92

###

measureName: pIC50
When answering, recall that pIC50 equals minus log10 of the concentration in mol/L, and write that number alone.

Exercise: Form field: pIC50 recorded for CN(C)CCCOc1nc(N2CC3CC2CN3)c2cc(Cl)c(-c3ccc(F)c4sc(N)nc34)c(F)c2n1 (stereo not shown) [Example E3] with WT KRAS:SOS1 (Homo sapiens) (enter value)
Key: 5.48

Exercise: Form field: pIC50 recorded for CN1C[C@H](F)C[C@H]1COc1nc(N2C3CCC2CNC3)c2cc(Cl)c(-c3ccc(F)c4sc(N)nc34)c(F)c2n1 [Example E36] with WT KRAS:SOS1 (Homo sapiens) (enter value)
Key: 6.62

Exercise: Form field: pIC50 recorded for CC(CN1CCCCC1)Oc1nc(N2CC3CCC(C2)N3)c2cc(Cl)c(-c3ccc(F)c4sc(N)nc34)c(F)c2n1 (stereo not shown) [Example E5] with WT KRAS:SOS1 (Homo sapiens) (enter value)
Key: 6.40

Exercise: Form field: pIC50 recorded for CC(CN1CCCCC1)Oc1nc(N2CC3COCC(C2)N3)c2cc(Cl)c(-c3ccc(F)c4sc(N)nc34)c(F)c2n1 (stereo not shown) [Example E21] with WT KRAS:SOS1 (Homo sapiens) (enter value)
Key: 6.47

Exercise: Form field: pIC50 recorded for CN1C[C@H](O)C[C@H]1COc1nc(N2CC3CCC(C2)N3)c2cc(Cl)c(-c3ccc(F)c4sc(N)nc34)c(F)c2n1 [Example E28] with WT KRAS:SOS1 (Homo sapiens) (enter value)
Key: 7.52

Exercise: Form field: pIC50 recorded for CN(C)CCCOc1nc(N2CCNCC2)c2cc(Cl)c(-c3cc(O)cc4ccccc34)c(F)c2n1 [Example E1] with WT KRAS:SOS1 (Homo sapiens) (enter value)
Key: 4.57

Exercise: Form field: pIC50 recorded for CN1CCC[C@H]1COc1nc(N2CC3CCC(C2)N3)c2cc(Cl)c(-c3ccc(F)c4sc(N)nc34)c(F)c2n1 [Example E16] with WT KRAS:SOS1 (Homo sapiens) (enter value)
Key: 7.57

Exercise: Form field: pIC50 recorded for C[C@@H](CN1CCC(F)C1)Oc1nc(N2C3CCC2CNC3)c2cc(Cl)c(-c3ccc(F)c4sc(N)nc34)c(F)c2n1 (stereo partly shown) [Example E43] with WT KRAS:SOS1 (Homo sapiens) (enter value)
Key: 6.31

Exercise: Form field: pIC50 recorded for C[C@@H](CN1CCOCC1)Oc1nc(N2C3CCC2CNC3)c2cc(Cl)c(-c3ccc(F)c4sc(N)nc34)c(F)c2n1 [Example E41] with WT KRAS:SOS1 (Homo sapiens) (enter value)
Key: 6.36

Exercise: Form field: pIC50 recorded for C[C@@H](CN1CCC(F)CC1)Oc1nc(N2CC3CCC(C2)N3)c2cc(Cl)c(-c3ccc(F)c4sc(N)nc34)c(F)c2n1 [Example E25] with WT KRAS:SOS1 (Homo sapiens) (enter value)
Key: 7.06

Exercise: Form field: pIC50 recorded for C[C@@H](CN1CCC(F)C1)Oc1nc(N2CC3CCC(C2)N3)c2cc(Cl)c(-c3ccc(F)c4sc(N)nc34)c(F)c2n1 (stereo partly shown) [Example E24] with WT KRAS:SOS1 (Homo sapiens) (enter value)
Key: 6.68

Exercise: Form field: pIC50 recorded for Nc1nc2c(-c3c(Cl)cc4c(N5CC6CCC(C5)N6)nc(OCC56CCCN5CCC6)nc4c3F)ccc(F)c2s1 [Example E7] with WT KRAS:SOS1 (Homo sapiens) (enter value)
Key: 7.96

Exercise: Form field: pIC50 recorded for C[C@@H](CN1CC(F)C1)Oc1nc(N2CC3CCC(C2)N3)c2cc(Cl)c(-c3ccc(F)c4sc(N)nc34)c(F)c2n1 [Example E31] with WT KRAS:SOS1 (Homo sapiens) (enter value)
Key: 5.97

Exercise: Form field: pIC50 recorded for CN1C[C@H](F)C[C@H]1COc1nc(N2CC3CCC(C2)N3)c2cc(C(F)(F)F)c(-c3ccc(F)c4sc(N)nc34)c(F)c2n1 [Example E51] with WT KRAS:SOS1 (Homo sapiens) (enter value)
Key: 7.21

###

# experimentalSystem: GDP-loaded KRAS G12D (Homo sapiens, UniProt P01116, G12D)
# Sequence (P01116 1-188 isoform P01116-2 G12D): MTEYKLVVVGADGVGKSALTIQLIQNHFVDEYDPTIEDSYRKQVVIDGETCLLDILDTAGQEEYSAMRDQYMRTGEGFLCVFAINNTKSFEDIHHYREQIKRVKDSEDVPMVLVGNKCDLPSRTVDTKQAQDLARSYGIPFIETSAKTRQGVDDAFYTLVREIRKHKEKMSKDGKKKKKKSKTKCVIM
# testName: KRAS G12D Probe Displacement Assay
# Type: binding
# testSettings: KRAS G12D 0.5 nM, biotinylated probe 2 4 nM; read-out: KRAS G12D Probe Displacement Assay IC50
measureName: IC50
Just the number plus its unit, please.

Exercise: Which IC50 value is on record for Nc1nc2c(-c3c(Cl)cc4c(N5CC6CCC(C5)N6)nc(OC[C@@]56CCCN5C[C@H](F)C6)nc4c3Cl)ccc(F)c2s1 [Example E63] ?
Key: 220 pM

Exercise: Which IC50 value is on record for Cc1ccc(-c2c(C(F)(F)F)cc3c(N4CC5CCC(C4)N5)nc(OC[C@@]45CCCN4C[C@H](F)C5)nc3c2F)c2nc(N)sc12 [Example E73] ?
Key: 570 pM

Exercise: Which IC50 value is on record for COCCNC1C[C@H]2CC[C@@H]1N2c1nc(OC[C@@]23CCCN2C[C@H](F)C3)nc2c(F)c(-c3ccc(F)c4sc(N)nc34)c(C(F)(F)F)cc12 (stereo partly drawn) [Example E58] ?
Key: 500 pM

Exercise: Which IC50 value is on record for CN1C[C@H](F)C[C@H]1COc1nc(N2CC3CCC(C2)N3)c2cc(Cl)c(-c3ccc(F)c4sc(N)nc34)c(Cl)c2n1 [Example E53] ?
Key: 1200 pM

Exercise: Which IC50 value is on record for Cc1cc(N)nc(-c2c(Cl)cc3c(N4C5CNCC4COC5)nc(OC[C@@]45CCCN4C[C@H](F)C5)nc3c2F)c1C(F)(F)F (stereo in doubt) [Example E88] ?
Key: 1700 pM

Exercise: Which IC50 value is on record for CN(C)CC1(COc2nc(N3CC4CCC(C3)N4)c3cc(Cl)c(-c4ccc(F)c5sc(N)nc45)c(F)c3n2)CCC1 [Example E68] ?
Key: 580 pM
